System: MCF10A
Method: one-nucleolus phenotype percent effect (relative to siNT 0% and siNOL11 100%); higher = more cells with one nucleolus (ribosome biogenesis inhibition)
Applied Conditions: 20 nM; 72 h
Listed here: items and their measured one-nucleolus phenotype percent effect.
Report only the number, with the unit % understood.

Quick note, one-nucleolus phenotype percent effect for GCUGAUGAUGAUGGUGCUGAAG [hsa-miR-4502] landed at -19.2

---

Listed here: items and their measured percent viability.
Tested on: MCF10A
Method: percent viability (nuclei count relative to siNT); higher = more viable cells
Applied Conditions: 20 nM; 72 h
Report only the number, with the unit % understood.

Some entries whose results are on file:
INSERT INTO results (sequence_record, assay_system, endpoint_unit, measured) VALUES
  ('UUUGAGGCUACAGUGAGAUGUG [hsa-miR-1304-5p]', 'MCF10A', '%', 68.3),
  ('CAGGGCAGAGGGCACAGGAAUCUGA [hsa-miR-6735-5p]', 'MCF10A', '%', 31.9),
  ('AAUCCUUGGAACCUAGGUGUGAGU [hsa-miR-362-5p]', 'MCF10A', '%', 36.6),
  ('UGGGCUAAGGGAGAUGAUUGGGUA [hsa-miR-664b-5p]', 'MCF10A', '%', 32.1);

As a next step, examine the sequence that follows.
Quick note, percent viability for AAAGCGCUUCCCUUCAGAGUG [hsa-miR-518e-3p] landed at 48.9
